Molecular target: T1, TNFR1 (Homo sapiens, UniProt P19438)
T1 chain: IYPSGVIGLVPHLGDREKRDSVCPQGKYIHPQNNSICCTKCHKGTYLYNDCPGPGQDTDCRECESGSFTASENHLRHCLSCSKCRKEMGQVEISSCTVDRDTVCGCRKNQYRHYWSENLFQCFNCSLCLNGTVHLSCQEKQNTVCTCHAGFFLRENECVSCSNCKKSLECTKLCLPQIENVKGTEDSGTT
Test: yeast display SC50
Here, each record is paired with measured apparent Kd (screen) data.
MEASURED_PROPERTY: apparent Kd (screen) (nM)

BINDER	MEASURED_PROPERTY	TEST_VALUE
K18P (designed binder) SMEEEVEKAAKEYEKKKPEAIEKHLEKLKAKDKEAAERFLKELEEAAKEYAKDEAKTMSEEEAKRRAKKYKEKVLLSELSEEEQKEIKEAEEKLVRTILKYVEEAAK	apparent Kd (screen)	5.84
L43P (designed binder) SMEEEVEKAAKEYEKKKKEAIEKHLEKLKAKDKEAAERFLKEPEEAAKEYAKDEAKTMSEEEAKRRAKKYKEKVLLSELSEEEQKEIKEAEEKLVRTILKYVEEAAK	apparent Kd (screen)	12.5
E82T (designed binder) SMEEEVEKAAKEYEKKKKEAIEKHLEKLKAKDKEAAERFLKELEEAAKEYAKDEAKTMSEEEAKRRAKKYKEKVLLSELSETEQKEIKEAEEKLVRTILKYVEEAAK	apparent Kd (screen)	0.49
E92G (designed binder) SMEEEVEKAAKEYEKKKKEAIEKHLEKLKAKDKEAAERFLKELEEAAKEYAKDEAKTMSEEEAKRRAKKYKEKVLLSELSEEEQKEIKEAEGKLVRTILKYVEEAAK	apparent Kd (screen)	1.54
